Provenance of the data: PubChem BioAssay AID1996

conditions.used: buffer; pH 7.4; 200.0 µM
readout.label: solubility kinetic

- COc1ccc(S(=O)(=O)NCCNC(=O)N2CCOCC2)cc1: > 51.5 µg/mL
- CC(C)N=C(NS(=O)(=O)c1cccs1)c1ccccc1: > 46.3 µg/mL
- COc1ccc(NC(=S)NC(=O)/C=C/c2ccc(F)cc2)cc1: < 0.4 µg/mL
- O=S(=O)(Nc1cccnc1)c1ccc(F)cc1: > 37.8 µg/mL
- Cc1cc(NC(=O)COC(=O)c2ccccc2NCCO)no1: > 47.9 µg/mL
- c1ccc(COCC2CCNCC2)cc1: > 30.8 µg/mL

###

conditions.used: buffer; pH 7.4; 200.0 µM
readout.label: solubility kinetic

- O=C(COC(=O)c1cc(Cl)ccc1O)NCC1CCCO1 (configuration not stated): > 47.1 µg/mL
- O=C(COc1ccccc1)NS(=O)(=O)c1ccc(Cl)cc1: > 48.9 µg/mL
- COC(=O)C(NC(=O)C(C)NC(=O)OCc1ccccc1)C(C)C (configuration not stated): > 50.5 µg/mL
- O=C(NCC(c1cccs1)N1CCc2ccccc21)c1ccccc1 (configuration not stated): < 0.4 µg/mL
- CC(=O)c1cccc(NC(=O)c2cc(=O)c3ccccc3o2)c1: < 0.7 µg/mL
- CCN1CCN(CC(=O)Nc2cc(S(=O)(=O)N3CCCCC3)ccc2Cl)CC1.O=C(O)C(=O)O: > 77.9 µg/mL
- CCOC(=O)Nc1ccc2c(c1)nc1n2CCN(CCOC)C1: > 47.8 µg/mL
- O=[N+]([O-])c1ccc(N2CCN(c3ccc(O)cc3)CC2)cn1: > 45 µg/mL
- COc1ccc(NC(=O)CN2CCN(C(C)=O)CC2)cc1S(=O)(=O)N1CCOCC1: > 66.1 µg/mL
- O=C(c1ccc([N+](=O)[O-])cc1)N1CCN(C(=O)C2CCCCC2)CC1: > 51.8 µg/mL
- CCS(=O)(=O)N1CCC(C(=O)Nc2cc(C)ccc2O)CC1: > 49 µg/mL
- CN1CCN(c2ccc(NC(=O)c3ccc(Cl)cc3)cn2)CC1: > 49.6 µg/mL
- C=CCc1c(C)[nH]c(=O)[nH]c1=O: > 24.9 µg/mL
- COc1nc(N)nc2nc[nH]c12: > 24.8 µg/mL
- COc1ccc(NC(=O)CCCc2ccc(OC)c(C)c2)cc1: 2.1 µg/mL
- O=C(NCc1ccccn1)Nc1ccccc1F: > 36.8 µg/mL
- Cc1ccc(NC(=O)NCc2cccnc2)cc1: > 36.2 µg/mL
- CC(C)OP(=O)(OC(C)C)C(NC(=O)c1ccccc1)C(N)=O (configuration not stated): > 51.3 µg/mL
- COC(=O)C1CCN(C(=O)/C(C)=C\c2ccccc2)CC1: 41 µg/mL
- Cc1cc(C)cc(C(=O)OCC(=O)Nc2ncccn2)c1: 37.4 µg/mL
- COCCN1CCn2c(nc3cc(NC(C)=O)ccc32)C1: 36.4 µg/mL
- CCOC(=O)C(=O)Nc1cc(C)on1: > 29.7 µg/mL
- O=C(COC(=O)C12CC3CC(CC(C3)C1)C2)Nc1nccs1: < 0.3 µg/mL
- Cc1ccc(-c2nc(NCCN(C)C)c3ccccc3n2)cc1: > 46 µg/mL
- COc1ccc(NC(=O)CC(C(=O)O)C(C)c2ccccc2)cc1 (configuration not stated): > 49.1 µg/mL
- O=C(Nc1ccc2c(c1)OCO2)c1ccccc1: > 36.2 µg/mL
- O=C(NCc1ccco1)c1cccc(C(F)(F)F)c1: > 40.4 µg/mL
- NC(=O)NNC(=S)Nc1cccc2ccccc12: > 39 µg/mL
- COc1ccc(/C=C/C(=O)O)cc1S(=O)(=O)N1CCCC1: > 46.7 µg/mL
- O=C(Nc1ncc2c(n1)-c1ccccc1OC2)c1cccc([N+](=O)[O-])c1: 1.4 µg/mL
- Cc1ccc(S(=O)(=O)N2CCCC(C(=O)NC3CCCC3)C2)cc1 (configuration not stated): 0.5 µg/mL
- O=C(/C=C/c1ccc(Br)cc1)NCCCn1ccnc1: 44.2 µg/mL

###

conditions.used: buffer; pH 7.4; 200.0 µM
readout.label: solubility kinetic

- O=C(Oc1c(-c2ccccc2)c(=O)n2c3c(cccc13)CC2)c1ccc(F)cc1: < 0.8 µg/mL
- CCCc1cc(=O)oc2cc(OCC(=O)N3CCC(C(N)=O)CC3)ccc12: > 55.9 µg/mL
- O=C(Nc1ccc2c(c1)OCO2)N1CCCc2ccccc21: > 44.4 µg/mL
- Cc1ccc2c(=O)cc(C(=O)NC3CCS(=O)(=O)C3)oc2c1 (configuration not stated): > 48.2 µg/mL
- Cc1nn(C)cc1S(=O)(=O)N1CCCCC1C (configuration not stated): > 38.6 µg/mL
- COCc1nnc(NC(=O)CCS(=O)(=O)c2ccccc2)s1: > 51.2 µg/mL
- CCC(=O)OCC(=O)Nc1ccc2c(c1)OCO2: > 37.7 µg/mL
- O=C(NCC1CCCCC1)c1cccc(-c2ccc(O)cc2)c1: < 0.7 µg/mL
- CC(C)(CN=C1NS(=O)(=O)c2ccccc21)CNC(=O)c1ccccc1: > 55.7 µg/mL
- CCN(CC(=O)Nc1c(F)cccc1F)C(=O)c1cnccn1: > 48 µg/mL
- CCOc1ccc(C(=O)NCC(=O)N2CCCC2)cc1: > 41.5 µg/mL
- CCCNC(=O)NC(=O)CN1CCCC1c1ccc2c(c1)OCCO2 (configuration not stated): > 52.1 µg/mL

###

conditions.used: buffer; pH 7.4; 200.0 µM
readout.label: solubility kinetic

* CCN(CC)CC(=O)N1c2ccccc2Sc2ccccc21 | > 46.9 µg/mL
* COc1ccc(Cl)cc1NC(=S)N1CC(C)OC(C)C1 (stereo not given) | > 47.2 µg/mL
* Cc1cc(C(=O)N2CCOCC2)c(C)o1 | > 31.4 µg/mL
* O=S(=O)(NC1=NCCCCC1)c1ccccc1Cl | > 43 µg/mL
* CCOC(=O)c1sc(=NC(=O)c2cccs2)n(C)c1C | < 0.3 µg/mL
* O=C(Nc1ccc(N2CCN(c3ccccc3)CC2)c(F)c1)C1CC1 | < 0.2 µg/mL
* Cc1ccc(CNC(=O)C2CC=CCC2C(=O)O)cc1 (stereo not given) | > 41 µg/mL
* CCN1CCN(c2ncnc3scc(-c4ccc(C)cc4)c23)CC1 | > 50.8 µg/mL
* O=C(COC(=O)c1ccc([N+](=O)[O-])o1)NCCc1ccccc1 | > 47.7 µg/mL
* CCC(C(=O)Nc1cc(Cl)c(OC)cc1OC)c1ccccc1 (stereo not given) | < 0.7 µg/mL

###

conditions.used: buffer; pH 7.4; 200.0 µM
The following molecules are shown together with reported solubility kinetic values.
readout.label: solubility kinetic

- CC1(C)NC(=O)N(CCC(=O)Nc2cc(C(F)(F)F)ccc2Cl)C1=O: > 56.7 µg/mL
- Nc1c(Br)c(=O)[nH]c(=O)n1-c1ccccc1: > 42.3 µg/mL
- Cc1cccnc1NC(=O)CCc1c[nH]c2ccccc12: > 41.9 µg/mL
- COC(=O)C(c1ccccc1)C1(O)CC(C)N(C)CC1C (stereo unspecified): > 43.7 µg/mL
- NC(=O)COC(=O)c1ccc(S(=O)(=O)NCc2ccco2)cc1: > 50.8 µg/mL
- Cc1ccc(/C=C(\C#N)C(=O)Nc2cccc(C)n2)cc1: < 0.2 µg/mL

###

conditions.used: buffer; pH 7.4; 200.0 µM
readout.label: solubility kinetic

* COc1ccc(NC(=O)COC(=O)C2=COCCO2)cc1OC | > 48.5 µg/mL
* CCC(=O)c1ccc2c(c1)N(CCCN(C)C)c1ccccc1S2.Cl | > 56.5 µg/mL
* CN(C)S(=O)(=O)c1cccc(NC(=O)COC(=O)c2cccnc2Cl)c1 | > 59.7 µg/mL
* O=C1OCc2ccc(NC(=O)c3sccc3Cl)cc21 | < 0.6 µg/mL
* O=[N+]([O-])c1cccc(/C=C/c2ccc3cccc(O)c3n2)c1 | < 0.3 µg/mL
* O=C(CCn1ccnc1)Nc1cc(Cl)ccc1O | > 39.9 µg/mL
* CCS(=O)(=O)N1CCC(C(=O)NCc2ccc3c(c2)OCO3)CC1 | > 53.2 µg/mL
* COCCNC(=O)c1cc2sccc2n1C | > 35.7 µg/mL
* Cc1cc(C)c(NC(=O)C2CC(=O)N(C3CCCC3)C2)c(C)c1 (centres undefined) | > 47.2 µg/mL

###

The following molecules are shown together with reported solubility kinetic values.
conditions.used: buffer; pH 7.4; 200.0 µM
readout.label: solubility kinetic (µg/mL)

• CCOc1cccc(C(=O)NC(c2ccccc2)C(C)C)c1 (stereo unspecified) = 5.1
• Cc1ccc(NC(=O)C2CCCN2C(=O)NC2CCCCC2)cc1 (stereo unspecified) = 1.9
• Cc1ccc(CC(=O)OCC(=O)c2ccc[nH]2)cc1C = 10.9
• Cc1onc(-c2ccccc2)c1C(=O)Nc1ccc(Cl)cn1 = 3.1
